Tested on: Rh1 cells
Assay: 3H-thymidine incorporation cell proliferation assay in Rh1 cells
Assay type: cell-based
Conditions: Homo sapiens, RH-1; Rh1 parental cells, Table 8; read-out: Parental IC50
endpoint_name: pIC50
Note on pIC50: it is the negative log10 of concentration, concentration in mol/L.

What measured pIC50 goes with C[C@@]1(C(=O)Nc2ccc(F)nc2)CCCN1c1nc(Nc2cc(C3CC3)[nH]n2)c2cccn2n1 [BMS-754807] ?
7.57

---

Tested on: GEO-807R cells
Assay: 3H-thymidine incorporation cell proliferation assay in GEO-807R cells
Type: cell-based
Settings: GEO-807R cells, Table 9; read-out: IGF-1R inhibitor Compound (IC50)
endpoint_name: IC50 (nM)
Numeric answer only, unit nM assumed.

What measured IC50 goes with C[C@@]1(C(=O)Nc2ccc(F)nc2)CCCN1c1nc(Nc2cc(C3CC3)[nH]n2)c2cccn2n1 ?
1230
